assay.name: self-splicing fitness, log relative to wild type (ln ratio); higher = more splicing; Tetrahymena group I intron in knt gene, E. coli kanamycin selection, DiMSum; sequences stand for … in CUCUCU…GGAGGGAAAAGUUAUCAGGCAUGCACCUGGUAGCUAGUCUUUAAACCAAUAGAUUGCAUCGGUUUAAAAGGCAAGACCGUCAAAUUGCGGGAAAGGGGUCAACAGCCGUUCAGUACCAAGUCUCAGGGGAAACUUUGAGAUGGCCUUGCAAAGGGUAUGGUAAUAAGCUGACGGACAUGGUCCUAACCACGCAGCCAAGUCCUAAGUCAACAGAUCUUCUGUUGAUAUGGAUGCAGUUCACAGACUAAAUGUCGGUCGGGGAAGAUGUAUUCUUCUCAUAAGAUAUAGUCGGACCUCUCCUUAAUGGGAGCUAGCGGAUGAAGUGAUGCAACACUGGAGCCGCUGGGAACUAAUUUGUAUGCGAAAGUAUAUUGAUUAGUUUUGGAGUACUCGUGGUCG;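 note: selection with 25 µg/mL kanamycin versus none on LB agar overnight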
condition.details: 37 °C
value.kind: self-splicing fitness (ln)

> print(dat)
          sequence.entry                  value.kind  quantitative.result
 1  UGUAAGCAAUAUUACGAAUG  self-splicing fitness (ln)               -0.125
 2  UUCAAGCAAUAUUACGCAAC  self-splicing fitness (ln)                -1.43
 3  ACCGAGCAAUAUUACGCACG  self-splicing fitness (ln)                -3.29
 4  UGUUAGCAAUAUUACGUCUU  self-splicing fitness (ln)                -1.46
 5  CAAAAGCAAUAUUACGGGCA  self-splicing fitness (ln)                -1.99
 6  UGGCAGCAAUAUUACGUAAU  self-splicing fitness (ln)                -1.05
 7  AUAAAGCAAUAUUACGCGGG  self-splicing fitness (ln)                 -1.4
 8  AAGUAGCAAUAUUACGGAAU  self-splicing fitness (ln)                -1.52
 9  GGUAAGCAAUAUUACGGGCU  self-splicing fitness (ln)               -0.874
10  CCAGAGCAAUAUUACGCAUA  self-splicing fitness (ln)                -2.48
11  GAAGAGCAAUAUUACGUCUG  self-splicing fitness (ln)                -1.76
12  UGCAAGCAAUAUUACGGUUA  self-splicing fitness (ln)                 0.11
13  GGAUAGCAAUAUUACGUGAA  self-splicing fitness (ln)                -1.13
14  ACCGAGCAAUAUUACGUGCA  self-splicing fitness (ln)                -1.79
15  AACAAGCAAUAUUACGUUAG  self-splicing fitness (ln)                -3.26
16  AGGCAGCAAUAUUACGGGUC  self-splicing fitness (ln)                -3.01
17  CAGGAGCAAUAUUACGGGCU  self-splicing fitness (ln)                -2.17

###

# reported self-splicing fitness (ln); entries follow
assay.name: self-splicing fitness, log relative to wild type (ln ratio); higher = more splicing; Tetrahymena group I intron in knt gene, E. coli kanamycin selection, DiMSum; sequences stand for … in CUCUCU…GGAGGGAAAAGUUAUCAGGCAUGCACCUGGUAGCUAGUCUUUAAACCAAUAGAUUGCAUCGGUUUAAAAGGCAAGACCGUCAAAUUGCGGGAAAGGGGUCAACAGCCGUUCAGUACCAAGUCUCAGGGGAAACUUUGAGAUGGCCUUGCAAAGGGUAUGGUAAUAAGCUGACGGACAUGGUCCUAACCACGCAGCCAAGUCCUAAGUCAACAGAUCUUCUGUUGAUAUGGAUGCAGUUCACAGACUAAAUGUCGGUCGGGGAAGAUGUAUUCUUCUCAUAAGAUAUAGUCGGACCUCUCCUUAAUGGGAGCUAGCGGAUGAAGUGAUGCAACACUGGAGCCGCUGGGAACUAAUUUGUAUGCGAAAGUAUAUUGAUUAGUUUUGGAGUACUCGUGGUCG
condition.details: 30 °C
value.kind: self-splicing fitness (ln)

> print(dat)
         sequence.entry  quantitative.result
1  CAUCAGCAAUAUUACGUGGC                -4.41
2  CGUAAGCAAUAUUACGACCG               -0.867
3  AUUGAGCAAUAUUACGGUUU                -3.23
